System: HAP1 MTAP-deleted cell line
Experiment: SDMA in-cell western assay, HAP1 MTAP-deleted
Format: cell-based
Details: Homo sapiens, HAP1, SDMA in-cell western, HAP1 MTAP-deleted; read-out: HAP1 MTAP deleted IC50
Quick reference for IC50 among some molecules

In the examples that follow, each entry is paired with its recorded IC50.
# MOLECULE, TARGET_OF_ASSAY, MEASURED_PARAMETER, OBSERVED_VALUE
data = [
    ("CC(=O)N1CCC(c2cccc([C@@H]3CC[C@@H](C)CN3C(=O)C(=O)Nc3cncc(C(N)=O)c3)c2)CC1 (single isomer, unassigned)", "HAP1 MTAP-deleted cell line", "IC50", "100 to 1000 nM"),
    ("COc1ncc(NC(=O)C(=O)N2CCCCC2C2CCCC2)cc1C(N)=O (single isomer, unassigned)", "HAP1 MTAP-deleted cell line", "IC50", "< 100 nM"),
]

**Q:** Recall and state the measured IC50 for Cc1cc(NC(=O)C(=O)N2CCCC[C@H]2C(C)C)cnc1N (single isomer, unassigned) .
**A:** 100 to 1000 nM
